Before we begin, note that these log10 of Ki values for D(3) dopamine receptor (Rattus norvegicus) originate from several publications.
All values: log10 Ki [nM].

Cn1c(SCCCN2CCOC(c3ccc(C(F)(F)F)cc3)C2)nnc1-c1ccc(-n2cnnc2)cc1 (racemic): 2.10
Cc1ncoc1-c1nnc(SCCCCN2CCOC(c3ccc(C(F)(F)F)cc3)C2)n1C (racemic): 1.90
C#CCN(CCN1CCN(c2ccccc2OC)CC1)C1CCc2nc(N)sc2C1 (centres undefined): 1.54

Find the recorded log10 of Ki belonging to COc1c(C(=O)NC2CCN(C3CCCCCC3)CC2)cc(Br)c2ccccc12 and report it.
1.76

// next record CCc1ccc(N2CCN(Cc3c[nH]c4ncccc34)CC2)cc1
3.23
